Biological target: T1, 4H3297-bH
T1 chain: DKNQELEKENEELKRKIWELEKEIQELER
Experiment: two-hybrid library CCNG1;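 note: natural log of median RNA to DNA barcode read ratio; higher means stronger binding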
Quantity: interaction score

P = DEIQELEKENEELKRKIWELKKENQELER [4H235-bH]
Q = DKIQELEKKNEELKRENWELEKKIQELKR [4H2518-bH]
R = DEIQELEKENEELERKIWELEKKIQELKR [4H166-bH]
## Task Give the descending interaction score ranking for the 3 binders listed above. To answer, arrange all of the labels according to the requested order.
## Result R, Q, P

These entries and their values trace back to paper PMC10397247.
